test system: HEK-293T; assay: Incucyte cell viability with HEK293T; assay type: toxicity, cell-based; settings: human, 18 h, 10 µM, compound concentration 10 uM, replicate number 2, timepoint 18 hours; also: unitless GR value; below 1 slowed growth and below 0 cell loss
Listed here are molecules together with their documented Growth Rate.
Give your answer as a number; write no unit.

// known answers, use as guide
{"columns": ["molecule", "assay.metric", "value.reported"],
 "data": [
  ["CC[C@H]1CN2CCc3cc(OC)c(OC)cc3[C@@H]2C[C@@H]1C[C@H]1NCCc2cc(OC)c(OC)cc21", "Growth Rate", -0.65],
  ["O=C1NC(NC23CC4CC(CC(C4)C2)C3)=N/C1=C\\c1ccc2ncsc2c1", "Growth Rate", 0.09],
  ["COCCN1CCC(c2cc(CN(C)C(=O)c3cccc(Oc4ccccc4)c3)ccn2)CC1", "Growth Rate", 0.92],
  ["COC[C@@H](CC(C)C)NC1=N/C(=C\\c2ccc3ncsc3c2)C(=O)N1C", "Growth Rate", 0.38]
]}

Need Growth Rate of `CC(C)(O)C(=O)N1CCN(c2ccc(C(F)(F)F)c(C3=C(c4c[nH]c5ccccc45)C(=O)NC3=O)c2)CC1` , thanks. 0.36

Need Growth Rate of `NC(=O)c1cccc(-c2cc(Nc3ccc(OC(F)(F)F)cc3)ncn2)c1` , thanks. 0.3

Need Growth Rate of `O=C1COc2nccc(-c3ccccc3F)c2CN1Cc1cc(C(F)(F)F)cc(C(F)(F)F)c1` , thanks. 0.88

Need Growth Rate of Cc1ccc(OCC(O)C(C)NC(C)C)c2c1CCC2.Cl (stereo not drawn) , thanks. 0.65

Need Growth Rate of `O=c1ccn([C@@H]2O[C@H](COP(=O)([O-])OP(=O)([O-])OP(=O)([O-])O)[C@@H](O)[C@H]2O)c(=O)[nH]1.[Na+].[Na+].[Na+]` , thanks. 0.75

Need Growth Rate of `CCCCCCCCCCCCCCC[C@@H](O)[C@@H](N)COP(=O)(O)O` , thanks. 0.88

Need Growth Rate of `CCN1/C(=C/C(C)=O)Sc2ccc(OC(C)=O)cc21` , thanks. 0.37

Need Growth Rate of `NC(=O)c1ccc(CNC(=O)NC[C@H]2CN(Cc3ccc(Cl)c(Cl)c3)CCO2)cc1` , thanks. 1

Need Growth Rate of Br.Oc1cc2c(cc1O)C(c1ccccc1)CNCC2 (stereo not drawn) , thanks. 0.37

Need Growth Rate of `Cc1ccc2c(c1CCC(=O)O)CC[C@@H](NS(=O)(=O)c1ccc(Cl)cc1)C2` , thanks. 0.97
